The measured values listed here are drawn from patent US9040518B2.

Target system: ileal bile acid cotransporter (iBAT) (Homo sapiens (Human), UniProt Q12908)
Sequence (Q12908 whole entry): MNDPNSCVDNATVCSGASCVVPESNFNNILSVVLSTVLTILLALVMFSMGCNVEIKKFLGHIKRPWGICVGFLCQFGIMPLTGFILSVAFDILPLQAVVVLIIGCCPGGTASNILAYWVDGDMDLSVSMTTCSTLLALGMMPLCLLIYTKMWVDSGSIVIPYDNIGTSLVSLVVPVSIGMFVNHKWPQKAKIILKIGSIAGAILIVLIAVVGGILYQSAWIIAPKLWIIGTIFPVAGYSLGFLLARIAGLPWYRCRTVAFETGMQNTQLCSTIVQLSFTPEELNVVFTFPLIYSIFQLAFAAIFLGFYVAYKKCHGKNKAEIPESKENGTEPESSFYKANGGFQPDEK
Experiment: Human iBAT inhibition: [3H]-taurocholate uptake into HEK293 cells expressing human iBAT
Measurement conditions: HEK293 cells transduced with human iBAT Bacmam virus, 90 minutes at ambient temperature, mean of at least 2 datapoints
Where a name gives a salt, the structure may show the parent alone.
Outcome measure: pIC50
Give bare numbers, as −log10 of the molar value.

Before answering, review these 5 worked examples.
Compound	Outcome measure	Result number
CCCC[C@]1(CC)CS(=O)(=O)c2cc(CP(=O)(O)O)c(OC)cc2[C@@H](c2ccccc2)N1 [Example 6, hydrochloride salt]	pIC50	7.64
CCCC[C@]1(CC)CS(=O)(=O)c2cc(CNCC(=O)O)c(OC)cc2[C@@H](c2ccccc2)N1	pIC50	8.22
CCCC[C@]1(CC)CS(=O)(=O)c2cc(CN(C)CC(=O)O)c(OC)cc2[C@@H](c2ccccc2)N1 [Example 49, ammonium salt]	pIC50	7.39
CCCC[C@]1(CC)CS(=O)(=O)c2cc(CNCC(=O)O)c(OC)cc2[C@H](c2ccccc2)N1 [Example 44, trifluoroacetate salt]	pIC50	6.19
CCCC[C@]1(CC)CS(=O)(=O)c2cc(CNCCP(=O)(O)OCC)c(OC)cc2[C@@H](c2ccccc2)N1 [Example 34, trifluoroacetate salt]	pIC50	5.55

*Q* Provide pIC50 value for the following compound: CCCC[C@]1(CC)CS(=O)(=O)c2cc(CN(CP(=O)(O)O)CP(=O)(O)O)c(OC)cc2[C@@H](c2ccccc2)N1
*A* 5.48

----------
Please go through the items and note down their pIC50.
Target system: ileal bile acid cotransporter (iBAT) (Homo sapiens (Human), UniProt Q12908)
Experiment: Human iBAT inhibition: [3H]-taurocholate uptake into HEK293 cells expressing human iBAT
Measurement conditions: HEK293 cells transduced with human iBAT Bacmam virus, 90 minutes at ambient temperature, mean of at least 2 datapoints
Structures can show the parent of a compound that is named as a salt.
One number for each entry, as −log10 of the molar value.

Compound	pIC50
CCCC[C@]1(CC)CS(=O)(=O)c2cc(CN(C)CCC(=O)O)c(OC)cc2[C@@H](c2ccccc2)N1 [Example 29, trifluoroacetate salt]	6.44
CCCC[C@]1(CC)CS(=O)(=O)c2cc(CCCP(=O)(O)O)c(OC)cc2[C@@H](c2ccccc2)N1 [Example 21, trifluoroacetate salt]	7.29
CCCC[C@]1(CC)CS(=O)(=O)c2cc(CNCC(=O)O)c(OC)cc2[C@@H](c2ccccc2)N1O	8.70
CCCC[C@]1(CC)CS(=O)(=O)c2cc(CN[C@@H](CSSC[C@H](N)C(=O)O)C(=O)O)c(OC)cc2[C@@H](c2ccccc2)N1 [Example 53, bis-ammonium salt]	7.17

Would you mind listing pIC50 for each of the following compounds?
1. CCCC[C@]1(CC)CS(=O)(=O)c2cc(CNC(=O)CS(=O)(=O)O)c(OC)cc2[C@@H](c2ccccc2)N1
2. CCCC[C@]1(CC)CS(=O)(=O)c2cc(CN[C@H](C(=O)O)[C@@H](C)O)c(OC)cc2[C@@H](c2ccccc2)N1 [Example 56, ammonium salt]
3. CCCC[C@]1(CC)CS(=O)(=O)c2cc(CNCCP(=O)(O)O)c(OC)cc2[C@@H](c2ccccc2)N1 [Example 33, trifluoroacetate salt]
4. CCCC[C@]1(CC)CS(=O)(=O)c2cc(CCCC(=O)O)c(OC)cc2[C@@H](c2ccccc2)N1 [Example 23, trifluoroacetate salt]
5. CCCC[C@]1(CC)CS(=O)(=O)c2cc(CNC(=O)CNCC(=O)O)c(OC)cc2[C@@H](c2ccccc2)N1 [Example 39, trifluoroacetate salt]
6. CCCC[C@]1(CC)CS(=O)(=O)c2cc(CP(=O)(O)O)c(OC)cc2[C@@H](c2ccccc2)N1O
7. CCCC[C@]1(CC)CS(=O)(=O)c2cc(CNCCCC(=O)O)c(OC)cc2[C@@H](c2ccccc2)N1 [Example 30, trifluoroacetate salt]
8. CCCC[C@]1(CC)CS(=O)(=O)c2cc(CP(=O)(O)O)c(OC)cc2[C@H](c2ccccc2)N1 [Example 45, trifluoroacetate salt]

*A*
1. 8.05
2. 6.37
3. 5.57
4. 8.70
5. 6.21
6. 6.91
7. 5.89
8. 5.71

*Q* Provide pIC50 value for the following compound: CCCCC1(CCCC)CS(=O)(=O)c2cc(CP(=O)(O)O)c(OC)cc2C(c2ccccc2)N1 (stereo not shown) [Example 67, trifluoroacetate salt]
*A* 7.28
